test system: Leishmania mexicana; assay: Antileishmanial activity against axenic amastigote stage of Leishmania mexicana (MNYC/BZ/62/M379) assessed as induction of parasite killing incubated for 24 hrs by alamar blue dye based fluorescence analysis; assay type: functional; conditions: read-out: ED50 (the source's name)
Decide using EC50 alone. Strictly below 30 µM: Criterion met. Equal to or above 30 µM: Criterion not met.

1) CC1(C)CC[C@]2(NC(=O)N3CCC[C@H]3CN3CCCC3)CC[C@]3(C)C(=CC[C@@H]4[C@@]5(C)CC[C@@H]6OC(C)(C)OC[C@@]6(C)[C@@H]5CC[C@]43C)[C@@H]2C1 ... Criterion not met
2) CC1(C)CC[C@]2(C(=O)OCC(=O)c3ccccc3)CC[C@]3(C)C(=CC[C@@H]4[C@@]5(C)CC[C@H](O)[C@@](C)(CO)[C@@H]5CC[C@]43C)[C@@H]2C1 ... Criterion not met
3) C[C@H](O)[C@H](O)[C@@H](O)[C@@H](O)[C@@H]1OC[C@@]2(C)[C@@H]3CC[C@]4(C)[C@H](CC=C5[C@@H]6CC(C)(C)CC[C@]6(CO)CC[C@]54C)[C@@]3(C)CC[C@@H]2O1 ... Criterion met
4) CC1(C)CC[C@]2(C(=O)O)CC[C@]3(C)C(=CC[C@@H]4[C@@]5(C)CC[C@H](O)[C@@](C)(C=O)[C@@H]5CC[C@]43C)[C@@H]2C1 ... Criterion met
5) CC1(C)CC[C@]2(C(=O)OCc3ccccc3[N+](=O)[O-])CC[C@]3(C)C(=CC[C@@H]4[C@@]5(C)CC[C@H](O)[C@@](C)(CO)[C@@H]5CC[C@]43C)[C@@H]2C1 ... Criterion not met
6) CCOP(=O)(OCC)OC[C@@]1(C)[C@@H]2CC[C@]3(C)[C@H](CC=C4[C@@H]5CC(C)(C)CC[C@]5(NC(=O)N5CCOCC5)CC[C@]43C)[C@@]2(C)CC[C@@H]1O ... Criterion met
7) COC(=O)[C@]12CCC(C)(C)C[C@H]1C1=CC[C@@H]3[C@@]4(C)CC[C@@H]5O[C@H]([C@H](O)[C@@H](O)[C@H](O)[C@H](O)CO)OC[C@@]5(C)[C@@H]4CC[C@@]3(C)[C@]1(C)CC2 ... Criterion met
8) CC1(C)CC[C@]2(NC(=O)N3CCC[C@H]3C(=O)NCCCn3ccnc3)CC[C@]3(C)C(=CC[C@@H]4[C@@]5(C)CC[C@@H]6OC(C)(C)OC[C@@]6(C)[C@@H]5CC[C@]43C)[C@@H]2C1 ... Criterion met
9) CC1(C)CC[C@]2(NC(=O)NCCCn3ccnc3)CC[C@]3(C)C(=CC[C@@H]4[C@@]5(C)CC[C@@H]6OC(C)(C)OC[C@@]6(C)[C@@H]5CC[C@]43C)[C@@H]2C1 ... Criterion not met
10) CC1(C)CC[C@]2(C(=O)O)CC[C@]3(C)C(=CC[C@@H]4[C@@]5(C)CC[C@H](O[C@@H]6OC[C@H](O)[C@H](O)[C@H]6O)[C@@](C)(CO)[C@@H]5CC[C@]43C)[C@@H]2C1 ... Criterion not met
11) CC1(C)CC[C@]2(NC(=O)N[C@H]3C(O)O[C@H](CO)[C@@H](O)[C@@H]3O)CC[C@]3(C)C(=CC[C@@H]4[C@@]5(C)CC[C@@H]6OC(C)(C)OC[C@@]6(C)[C@@H]5CC[C@]43C)[C@@H]2C1 (some centres undefined) ... Criterion not met
12) CC1(C)CC[C@]2(C(=O)OCc3ccccc3)CC[C@]3(C)C(=CC[C@@H]4[C@@]5(C)CC[C@H](O)[C@@](C)(CO)[C@@H]5CC[C@]43C)[C@@H]2C1 ... Criterion not met
13) CC1(C)CC[C@]2(C(=O)OCCC3OCCCO3)CC[C@]3(C)C(=CC[C@@H]4[C@@]5(C)CC[C@H](O)[C@@](C)(CO)[C@@H]5CC[C@]43C)[C@@H]2C1 ... Criterion not met
14) CC(=O)N1CCN(C(=O)N[C@]23CCC(C)(C)C[C@H]2C2=CC[C@@H]4[C@@]5(C)CC[C@@H]6OC(C)(C)OC[C@@]6(C)[C@@H]5CC[C@@]4(C)[C@]2(C)CC3)CC1 ... Criterion met
15) CC(=O)OC[C@@]1(C)[C@@H]2CC[C@]3(C)[C@H](CC=C4[C@@H]5CC(C)(C)CC[C@]5(NC(=O)N5CCCC5)CC[C@]43C)[C@@]2(C)CC[C@@H]1O ... Criterion met
16) CC1(C)CC[C@]2(C(=O)O)CC[C@]3(C)C(=CC[C@@H]4[C@@]5(C)CC[C@@H]6O[C@H]([C@H](O)[C@@H](O)[C@H](O)[C@H](O)CO)OC[C@@]6(C)[C@@H]5CC[C@]43C)[C@@H]2C1 ... Criterion met
17) CN(C[C@H](O)[C@@H](O)[C@H](O)[C@H](O)CO)C(=O)N[C@]12CCC(C)(C)C[C@H]1C1=CC[C@@H]3[C@@]4(C)CC[C@@H]5OC(C)(C)OC[C@@]5(C)[C@@H]4CC[C@@]3(C)[C@]1(C)CC2 ... Criterion met
18) CC1(C)CC[C@]2(C(=O)O)CC[C@]3(C)C(=CC[C@@H]4[C@@]5(C)CC[C@@H]6O[C@H]([C@H](O)[C@@H](O)[C@@H](O)CO)OC[C@@]6(C)[C@@H]5CC[C@]43C)[C@@H]2C1 ... Criterion met
19) CC1(C)CC[C@]2(NC(=O)N3CCCNCC3)CC[C@]3(C)C(=CC[C@@H]4[C@@]5(C)CC[C@@H]6OC(C)(C)OC[C@@]6(C)[C@@H]5CC[C@]43C)[C@@H]2C1 ... Criterion not met

====

system: Leishmania mexicana; experiment: Antileishmanial activity against axenic amastigote stage of Leishmania mexicana (MNYC/BZ/62/M379) assessed as induction of parasite killing incubated for 24 hrs by alamar blue dye based fluorescence analysis; format: functional; conditions: read-out: ED50 (the source's name)
pEC50: −log10 of the molar value.
pEC50 for assorted molecules
property: pEC50

1) CC1(C)CC[C@]2(C(=O)O)CC[C@]3(C)C(=CC[C@@H]4[C@@]5(C)CC[C@@H]6O[C@H](C[C@H]7O[C@H](CO)[C@H](O)[C@H](O)[C@H]7O)OC[C@@]6(C)[C@@H]5CC[C@]43C)[C@@H]2C1 ... 4.66
2) CC1(C)CC[C@]2(C(=O)O)CC[C@]3(C)C(=CC[C@@H]4[C@@]5(C)CC[C@@H]6O[C@H](C[C@H]7O[C@H](CO)[C@@H](O)[C@H](O)[C@H]7O)OC[C@@]6(C)[C@@H]5CC[C@]43C)[C@@H]2C1 ... 5.12

====

experiment: Selectivity index, ratio of ED50 for mouse RAW264.7 cells to ED50 for antileishmanial activity against axenic amastigote stage of Leishmania mexicana (MNYC/BZ/62/M379); assay type: toxicity; details: read-out: Ratio ED50
property: selectivity ratio

1. CC1(C)CC[C@]2(NC(=O)N3CCC[C@H]3C(=O)O)CC[C@]3(C)C(=CC[C@@H]4[C@@]5(C)CC[C@@H]6OC(C)(C)OC[C@@]6(C)[C@@H]5CC[C@]43C)[C@@H]2C1 ... 6
2. CC1(C)CC[C@]2(C(=O)O)CC[C@]3(C)C(=CC[C@@H]4[C@@]5(C)CC[C@H](O)[C@@](C)(C=O)[C@@H]5CC[C@]43C)[C@@H]2C1 ... 3.8
3. CC1(C)CC[C@]2(C(=O)O)CC[C@]3(C)C(=CC[C@@H]4[C@@]5(C)CC[C@@H]6O[C@H](C[C@H]7O[C@H](CO)[C@@H](O)[C@H](O)[C@H]7O)OC[C@@]6(C)[C@@H]5CC[C@]43C)[C@@H]2C1 ... 4.9

====

experiment: Selectivity index, ratio of ED50 for mouse RAW264.7 cells to ED50 for antileishmanial activity against axenic amastigote stage of Leishmania mexicana (MNYC/BZ/62/M379); type: toxicity; conditions: read-out: Ratio ED50
property: selectivity ratio

1. CC1(C)CC[C@]2(C(=O)O)CC[C@]3(C)C(=CC[C@@H]4[C@@]5(C)CC[C@@H]6O[C@H]([C@H](O)[C@@H](O)[C@H](O)[C@H](O)CO)OC[C@@]6(C)[C@@H]5CC[C@]43C)[C@@H]2C1 ... 6.7
2. CC(=O)OC[C@H](OC(C)=O)[C@H](OC(C)=O)[C@@H](OC(C)=O)[C@@H]1OC[C@@]2(C)[C@@H]3CC[C@]4(C)[C@H](CC=C5[C@@H]6CC(C)(C)CC[C@]6(C(=O)O)CC[C@]54C)[C@@]3(C)CC[C@@H]2O1 ... 1.5
3. COC(=O)[C@]12CCC(C)(C)C[C@H]1C1=CC[C@@H]3[C@@]4(C)CC[C@@H]5O[C@H]([C@H](O)[C@@H](O)[C@H](O)[C@H](O)CO)OC[C@@]5(C)[C@@H]4CC[C@@]3(C)[C@]1(C)CC2 ... 1.1
